Attribution: ChEMBL document CHEMBL5528067

assay_info: Hemolytic activity in rabbit Red blood cell assessed as hemolysis rate at 64 microg/ml incubated for 1 hr
Type: toxicity, cell-based, Oryctolagus cuniculus, Erythrocyte
condition_details: red blood cells, at 64 µg/mL, read-out: Activity
value_kind: hemolysis at 1 h, 64 microg/ml (%)
Answer with a number only, understood to be in %.

Take a look at these entries with their results.
• O=[N+]([O-])c1ccc(O)c(/C=N/Nc2nc(NCc3ccc(F)cc3)nc(NCc3ccc(F)cc3)n2)c1 = 4.92
• OC(Cn1cncn1)(Cn1cncn1)c1ccc(F)cc1F = 23.9

Please look at the following molecule next.
Ask: Look at this molecule and give its reported hemolysis at 1 h, 64 microg/ml. NCCOCCOCCNC(=O)Cc1ccc(Nc2nc(NCc3ccc(F)cc3)nc(NCC3CCCCC3)n2)cc1
Reply: 3.48

###

// MIC80 lookup, one value per entry
System: [Candida] auris
assay_info: Antifungal activity against FCZ-resistant Candida auris 919 assessed as growth inhibition measured after 48 hrs incubation by CLSI based micro-dilution broth method
Type: functional
condition_details: Candidozyma auris
Write down the numeric answer in µg/mL and omit the unit.

* NCCOCCOCCNC(=O)Cc1ccc(Nc2nc(NCc3ccc(F)cc3)nc(NCC3CCCCC3)n2)cc1 | 32
* O=[N+]([O-])c1ccc(O)c(/C=N/Nc2nc(NCc3ccc(F)cc3)nc(NCc3ccc(F)cc3)n2)c1 | 16
* O=[N+]([O-])c1ccc(O)c(/C=N/Nc2nc(NCc3ccc(F)cc3)nc(NCC3CCCCC3)n2)c1 | 8
* COc1ccc(Nc2nc(NCc3ccco3)nc(N/N=C/c3cc([N+](=O)[O-])ccc3O)n2)cc1 | 8
* O=[N+]([O-])c1ccc(O)c(/C=N/Nc2nc(NCc3ccc(F)cc3)nc(Nc3ccc(F)cc3)n2)c1 | 32

Ask: Return MIC80 measured with [Candida] auris given this molecule: O=[N+]([O-])c1cccc(/C=N/Nc2nc(NCc3ccc(F)cc3)nc(NCc3ccc(F)cc3)n2)c1O
Reply: 32

Ask: Now consider O=[N+]([O-])c1ccc(O)c(/C=N/Nc2nc(NCc3ccco3)nc(NCc3ccco3)n2)c1 and answer again.
Reply: 4

Ask: Please answer likewise for O=[N+]([O-])c1ccc(O)c(/C=N/Nc2nc(NCc3ccc(F)cc3)nc(NCc3ccco3)n2)c1
Reply: 4

Ask: # repeat for O=[N+]([O-])c1ccc(O)c(/C=N/Nc2nc(NCc3ccccc3)nc(NCc3ccc(F)cc3)n2)c1
Reply: 16

Ask: Same lookup for COc1ccc(Nc2nc(NCc3ccc(F)cc3)nc(N/N=C/c3cc([N+](=O)[O-])ccc3O)n2)cc1 , please.
Reply: 32

###

assay_info: Clearance in Sprague-Dawley rat at 2 mg/kg, iv measured upto 24 hrs by LC-MS/MS analysis
Format: ADME, organism-based
condition_details: in vivo
value_kind: clearance (L/h/kg)
Expressed in L/h/kg, but write only the number.

Ask: Could you tell me which clearance is on file for O=[N+]([O-])c1ccc(O)c(/C=N/Nc2nc(NCc3ccc(F)cc3)nc(NCc3ccc(F)cc3)n2)c1 ?
Reply: 1.37

###

assay_info: Volume of distribution at steady state in Sprague-Dawley rat at 2 mg/kg, iv measured upto 24 hrs by LC-MS/MS analysis
Type: ADME, organism-based
condition_details: in vivo, read-out: Vdss
value_kind: Vd (L/kg)
# unit: L/kg | format: bare number

Ask: Item O=[N+]([O-])c1ccc(O)c(/C=N/Nc2nc(NCc3ccc(F)cc3)nc(NCc3ccc(F)cc3)n2)c1 has what recorded Vd?
Reply: 1.08
